- System: MOOVA (Monochoria)
- methodNotes: Preemergence weed control under flooded paddy conditions
- Assay type: in vivo, Monochoria vaginalis
- conditions: 0.0625 kg/ha, rated 3-4 weeks after treatment
- Description: Results of herbicide evaluation are expressed on a rating scale (0-9). The scale is based upon a visual observation of plant stand, vigor, malformation, size, chlorosis and overall plant appearance as compared with a control. Preemergence herbicidal activity under flooded paddy conditions is determined as follows: plant seeds or propagating organs are planted in the top 0.5 cm of silt loam soil in 32 oz. plastic containers with a diameter of 10.5 cm and no drainage holes. […]
measurementType: herbicidal effect rating, MOOVA
# print the numeric value only

For orientation, consider the following solved cases.
C=C1SC(=Nc2cc(-n3c(=O)cc(C(F)(F)F)n(C)c3=O)c(F)cc2Cl)N(CC(=O)OCC)C1=O    7.0
COc1cc(CN2C(=O)CSC2=Nc2cc(-n3c(=O)cc(C(F)(F)F)n(C)c3=O)c(F)cc2Cl)cc(OC)c1OC    7.0
Cc1ccccc1CN1C(=O)CSC1=Nc1cc(-n2c(=O)cc(C(F)(F)F)n(C)c2=O)c(F)cc1Cl    7.0
CCOC(=O)CN1C(=O)C(Br)SC1=Nc1cc(-n2c(=O)cc(C(F)(F)F)n(C)c2=O)c(F)cc1Cl (stereo not drawn)    3.0
Cn1c(C(F)(F)F)cc(=O)n(-c2cc(N=C3SCC(=O)N3CC(=O)OCC3CCCCC3)c(Cl)cc2F)c1=O    7.0

Query: Suppose we examine the compound "Cc1cc(C)cc(CN2C(=O)CSC2=Nc2cc(-n3c(=O)cc(C(F)(F)F)n(C)c3=O)c(F)cc2Cl)c1" ; what herbicidal effect rating, MOOVA value has been reported?
Reply: 6.0

Query: How about this compound: CCOC(=O)CN1C(=O)C(OC)SC1=Nc1cc(-n2c(=O)cc(C(F)(F)F)n(C)c2=O)c(F)cc1Cl (stereo not drawn)
Reply: 6.0

Query: How about this compound: CCOC(=O)CN1C(=O)C(CC(=O)O)SC1=Nc1cc(N2C(=O)CC(C(F)(F)F)CC2=O)c(F)cc1Cl (stereo not drawn)
Reply: 9.0

Query: How about this compound: CCOC(=O)CN1C(=O)C(C(=O)OC)SC1=Nc1cc(-n2c(=O)cc(C(F)(F)F)n(C)c2=O)c(F)cc1Cl (stereo not drawn)
Reply: 7.0

# credit: patent US20020137929A1
